System: HepG2-A16-CD81EGFP cells
protocol: cells
setupConditions: Homo sapiens, HepG2, read-out: HepG2 Tox% @ 50 uM rep2
Rule: measured cytotoxicity at 50 µM below 90% gets 1 (yes); anything equal to or greater than 90% gets 0 (no).

Examples from the recorded data:
molecule	discreteLabel
Cc1ccc(N2C(=O)C3C(C2=O)C2(c4ccccc4)C(=O)C3(c3ccccc3)C(c3ccccc3)=C2c2ccccc2)cc1 (stereo not shown)	1 (yes)
CCN(CC)CCn1c(=N)n(CC(O)c2ccc(Cl)c(Cl)c2)c2ccccc21 (stereo not shown)	0 (no)
c1ccc(-c2ccc(-c3nc4ccccc4[nH]3)cc2)cc1	1 (yes)
Cc1ccc(CSCc2ccc(C(=O)NC3CC3)o2)cc1	1 (yes)
CC(C)c1ccc(CNCC(O)c2ccccc2)cc1 (stereo not shown)	0 (no)

Q: cytotoxicity at 50 µM under 90%? Item: CC(=O)Nc1nnc(SCc2c(C)cc(C(C)(C)C)cc2C)s1
A: 1 (yes)

Q: cytotoxicity at 50 µM under 90%? Item: Cc1cc(Nc2cccc(F)c2)nc(NCc2ccccc2)n1
A: 0 (no)

Q: cytotoxicity at 50 µM under 90%? Item: COc1ccccc1N=C1C(=O)c2ccccc2C(O)=C1N1CCCCC1
A: 0 (no)

Q: cytotoxicity at 50 µM under 90%? Item: Cc1ccc(Nc2nc(-c3ccccn3)cs2)cc1
A: 0 (no)

Q: cytotoxicity at 50 µM under 90%? Item: O=C(NC(c1ccccc1)c1ccc2cccnc2c1O)c1ccccc1 (stereo not shown)
A: 0 (no)

Q: cytotoxicity at 50 µM under 90%? Item: O=C(NCc1ccco1)C1CCN(S(=O)(=O)c2ccc(Br)cc2)CC1
A: 1 (yes)

Q: cytotoxicity at 50 µM under 90%? Item: COc1ccc(N2CCN(C(CNC(=O)C3CCCCC3)c3ccc4c(c3)OCO4)CC2)cc1 (stereo not shown)
A: 1 (yes)

Q: cytotoxicity at 50 µM under 90%? Item: Cc1cc(C=C2SC(=Nc3ccccc3)N(C3CCCC3)C2=O)c(C)n1-c1ccc(Cl)cc1
A: 1 (yes)

====

Test system: Plasmodium berghei (Pb-Luc) exoerythrocytic-stage parasites
protocol: microbe, parasite or virus in culture
setupConditions: read-out: Inhibition% @ 50 uM rep2
measuredProperty: inhibition at 50 µM (%)
Give bare numbers, in %.

Before answering, review these 5 worked examples.
compound	experimentalSystem	inhibition at 50 µM, %
COCCNC(=O)c1ccc(OC2CCN(Cc3ccc(F)c(F)c3)CC2)c(Cl)c1 [MMV666072]	Plasmodium berghei (Pb-Luc) exoerythrocytic-stage parasites	102
COc1ccc(-c2c(C)nn3c(N)c(C#N)cnc23)cc1OC [MMV396797]	Plasmodium berghei (Pb-Luc) exoerythrocytic-stage parasites	106
COc1ccccc1N1C(=N)SC(=Cc2ccc(OCc3ccccc3F)cc2)C1=O [MMV007199]	Plasmodium berghei (Pb-Luc) exoerythrocytic-stage parasites	101
CN1CCN(c2ncnc3c2[nH]c2ccc(Cl)cc23)CC1 [MMV396704]	Plasmodium berghei (Pb-Luc) exoerythrocytic-stage parasites	101
Cc1ccc2nc(C)cc(Nc3cccc(C(F)(F)F)c3)c2c1 [MMV000326]	Plasmodium berghei (Pb-Luc) exoerythrocytic-stage parasites	103

Parameter requested: inhibition at 50 µM. Apply to each item below.
1. CCCc1c(C)nc2ccc(Br)cc2c1O [MMV666095]
2. Cc1ccc2c(C)nc(Nc3nc(C)cc(-c4ccccc4)n3)nc2c1 [MMV007041]
3. Cc1ccc(-c2nc3ccccc3o2)cc1NCc1cc(Cc2ccccc2)ccc1O [MMV020912]
4. Cc1ccc(Nc2nc(N)c3ccccc3n2)cc1Cl [MMV011522]
5. O=C(Nc1ccc(Cl)cc1C(=O)Nc1ccncc1)c1ccc(Cl)cc1Cl [MMV666057]

A:
1: 103; 2: 103; 3: 76; 4: 99; 5: 102

====

I'd be grateful if you could share measured normalized signal at 0.0137174 (first series) for these entries.
System: Plasmodium berghei (Pb-Luc) exoerythrocytic-stage parasites
setupConditions: concentration 0.0137174, first replicate series; fraction of control
One number for each entry.

COc1ccc(NC(=O)N(C)C[C@H]2Oc3ccc(NC(=O)Nc4cccc5ccccc45)cc3CC(=O)N([C@@H](C)CO)C[C@@H]2C)cc1 1.267

Parameter requested: normalized signal at 0.0137174 (first series). Apply to each item below.
1. O=C(C[C@@H]1CC[C@@H]2[C@H](COC[C@@H](O)CN2C(=O)c2ccncc2)O1)Nc1ccc(-c2ccccc2)cc1
2. O=C(Cc1ccccn1)N1CC2(C1)[C@H](c1ccccc1)[C@H](CO)N2C(=O)c1ccncc1
3. C[C@H]1CN([C@@H](C)CO)C(=O)c2cccc(NC(=O)c3ccc(-c4nccs4)cc3)c2O[C@@H]1CN(C)C(=O)Nc1ccc(C(F)(F)F)cc1
4. C[C@@H]1CN([C@H](C)CO)C(=O)c2cccc(NC(=O)c3ccc(-c4nccs4)cc3)c2O[C@H]1CN(C)C(=O)Nc1ccc(C(F)(F)F)cc1

A:
1: 1.011; 2: 0.9082; 3: 0.9989; 4: 1.197

Q: Which normalized signal at 0.0137174 (first series) value is on record for N#C[C@@H]1[C@H](c2ccccc2C2=CCCC2)[C@H](CO)N1C(=O)C1CCOCC1 ?
A: 0.9372

====

I'd be grateful if you could share measured normalised signal at concentration 10 (first series) for these entries.
Tested on: Plasmodium berghei (Pb-Luc) exoerythrocytic-stage parasites
setupConditions: concentration 10, first series of dose columns
One number for each entry.

Parameter requested: normalised signal at concentration 10 (first series). Apply to each item below.
1. O=C(NCc1ccc2c(c1)OCO2)[C@@H]1[C@@H](CO)[C@@H]2Cn3c(cccc3=O)[C@H]1N2Cc1cncnc1
2. C[C@@H]1CCCCO[C@H](CN(C)S(=O)(=O)c2ccc(F)cc2)[C@H](C)CN([C@@H](C)CO)C(=O)c2cc(N(C)C)ccc2O1
3. C[C@@H]1CCCCO[C@@H](CN(C)S(=O)(=O)c2ccc(F)cc2)[C@H](C)CN([C@@H](C)CO)C(=O)c2cc(N(C)C)ccc2O1

A:
1. 1.039
2. 0.9825
3. 0.7308

====

experimentalSystem: QuantiLum Recombinant Luciferase (Photinus pyralis, UniProt P08659)
Sequence (P08659 whole entry): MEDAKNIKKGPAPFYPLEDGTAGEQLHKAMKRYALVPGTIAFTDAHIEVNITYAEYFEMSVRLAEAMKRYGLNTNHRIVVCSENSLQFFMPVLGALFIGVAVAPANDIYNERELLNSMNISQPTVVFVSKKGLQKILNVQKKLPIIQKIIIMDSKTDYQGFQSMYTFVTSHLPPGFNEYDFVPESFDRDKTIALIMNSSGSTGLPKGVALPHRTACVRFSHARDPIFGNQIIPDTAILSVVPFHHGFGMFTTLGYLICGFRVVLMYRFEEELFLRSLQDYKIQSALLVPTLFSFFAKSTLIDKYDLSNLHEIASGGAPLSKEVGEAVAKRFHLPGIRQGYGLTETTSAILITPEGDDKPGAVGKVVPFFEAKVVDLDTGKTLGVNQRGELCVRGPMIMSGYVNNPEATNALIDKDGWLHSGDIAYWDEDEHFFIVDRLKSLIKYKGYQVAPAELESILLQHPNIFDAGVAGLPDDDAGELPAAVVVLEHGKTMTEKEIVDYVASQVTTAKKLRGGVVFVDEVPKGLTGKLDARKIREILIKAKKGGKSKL
protocol: Bioluminescence quantification of compound luciferase inhibition
setupConditions: read-out: LucInhib max inhibition
measuredProperty: Emax (%)
One number for each entry, in %.

Before answering, review these 10 worked examples.
compound	measuredProperty	valueReported
CCOc1cc(Cl)c(C(C)NC(=O)c2ccccc2)cc1OCC (stereo not drawn) [MMV665800]	Emax	41
Cc1ccc(Cn2c(N3CCC(C(=O)NCc4cccs4)CC3)nc3ccccc32)cc1 [MMV007564]	Emax	27
CCCCCC(=O)N1c2ccccc2N=C2CC(c3ccc(OC)c(OC)c3)CC(O)=C2C1c1ccc(C(F)(F)F)cc1 (stereo not drawn) [MMV085583]	Emax	34
O=C(NC1CCCC1)c1ccc(N2CCC(NCc3cccc(C(F)(F)F)c3)CC2)cc1 [MMV666070]	Emax	18
COc1cccc(C=Cc2nc(=O)c3ccccc3o2)c1OC [MMV666693]	Emax	89
COc1ccccc1CNC(=O)CCn1c(=O)[nH]c2ccsc2c1=O [MMV019066]	Emax	21
Cc1ccc(-c2cc3c(SCC(=O)Nc4cc(C(F)(F)F)ccc4Cl)nccn3n2)cc1 [MMV396680]	Emax	21
CC(C)(C)c1ccc(C2CC3=Nc4ccccc4N(C(=O)c4ccccc4Cl)C(c4ccc(F)cc4)C3=C(O)C2)cc1 (stereo not drawn) [MMV011436]	Emax	20
Cc1sc(NC(=O)c2ccccc2)c(C(c2cccs2)N2CCN(c3ccccc3)CC2)c1C (stereo not drawn) [MMV396652]	Emax	33
COc1ccc(N2CCN(C(CNC(=O)C3CCCCC3)c3ccc4c(c3)OCO4)CC2)cc1 (stereo not drawn) [MMV019662]	Emax	38

Parameter requested: Emax. Apply to each item below.
1. CCOc1ccccc1CN1CCc2nc3cc(C(C)(C)C)nn3c(O)c2C1 [MMV396595]
2. COc1ccc(-c2nc(N3CCN(C(=O)C4CCCCC4)CC3)c3c4c(sc3n2)CCCC4)cc1 [MMV396594]
3. COc1ccccc1N1C(=N)SC(=Cc2ccc(OCc3ccccc3F)cc2)C1=O [MMV007199]
4. O=C(c1ccccc1F)N(Cc1ccc(Cl)cc1)c1ccccn1 [MMV665899]
5. Oc1c2c(nc3cc(-c4ccccc4)nn13)CCCC2 [MMV008270]
6. CCc1ccc(Nc2cc(C)nc3nc(C)nn23)cc1 [MMV007374]

A:
1: 50; 2: 44; 3: 25; 4: 40; 5: 92; 6: 30

Parameter requested: Emax. Apply to each item below.
1. CCN1CCN(c2c(C(=O)c3ccccc3)cnc3cc(OC)c(OC)cc23)CC1 [MMV008474]
2. CCOC(=O)c1cnc2ccc(CC)cc2c1O [MMV007116]

A:
[22, 17]
